- assay name: physchem
- Type: physicochemical
- reported conditions: water
experimental endpoint: solubility

Request: Retrieve solubility measured for CCNc1nc(NC(C)(C)C)nc(SC)n1 and print it.
Result: ~20 µg/mL
